# reported pKi; entries follow
biological target: D(3) dopamine receptor (Rattus norvegicus, UniProt P19020); test: In vitro binding affinity against cloned mammalian Dopamine receptor D3 expressed in CHO cells by, using [3H]-spiperone as radioligand; format: cell-based; details: read-out: Ki
Sequence (P19020 whole entry): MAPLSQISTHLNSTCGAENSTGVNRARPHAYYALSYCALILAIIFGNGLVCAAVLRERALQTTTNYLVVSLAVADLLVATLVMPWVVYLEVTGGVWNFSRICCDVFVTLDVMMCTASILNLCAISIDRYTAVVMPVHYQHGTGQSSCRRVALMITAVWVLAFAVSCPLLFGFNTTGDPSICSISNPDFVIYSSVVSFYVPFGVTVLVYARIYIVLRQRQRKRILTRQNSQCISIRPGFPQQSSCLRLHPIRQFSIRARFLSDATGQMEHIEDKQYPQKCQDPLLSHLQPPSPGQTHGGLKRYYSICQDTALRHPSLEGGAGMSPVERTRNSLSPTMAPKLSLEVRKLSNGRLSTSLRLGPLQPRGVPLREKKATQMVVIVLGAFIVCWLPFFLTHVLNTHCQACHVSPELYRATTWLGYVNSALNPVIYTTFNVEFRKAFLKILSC
Please treat pKi as minus the base-10 logarithm of the molar concentration.

Solved entries (count: 4):
CN(C)[C@@H]1CCc2ccc3[nH]cc(C=O)c3c2C1	6.58
CCCN(C)C1CCc2ccc3[nH]ccc3c2C1 (stereo unspecified)	6.95
CCCN(CCCCN1C(=O)CC(C)(C)CC1=O)C1CCc2ccc3[nH]cc(C=O)c3c2C1 (stereo unspecified)	6.35
CCCN(CCCCN1C(=O)CC(C)(C)CC1=O)C1CCc2ccc3[nH]ccc3c2C1 (stereo unspecified)	7.54

Exercise: Read the entry C=CCN(CCC)C1CCc2ccc3[nH]cc(C=O)c3c2C1 (stereo unspecified) and write its reported pKi.
Solution: 6.89

Exercise: Read the entry CCCN(CCCc1ccccc1OC)C1CCc2ccc3[nH]ccc3c2C1 (stereo unspecified) and write its reported pKi.
Solution: 8.00

----------
biological target: D(3) dopamine receptor (Rattus norvegicus); experiment: In vitro binding affinity against cloned mammalian Dopamine receptor D3 expressed in CHO cells by, using [3H]-spiperone as radioligand; assay type: cell-based; conditions: read-out: Ki
pKi: −log10 of the molar value.
Binary classification by pKi, with 7 as an inclusive lower bound for Satisfied; all other cases are Not satisfied.

For orientation, consider the following solved cases.
CCCN(C)C1CCc2ccc3[nH]cc(C=O)c3c2C1 (configuration not stated)	Not satisfied
CCCN(CCCOc1cccc(Cl)c1)C1CCc2ccc3[nH]ccc3c2C1 (configuration not stated)	Satisfied
CCCN(CCc1cccs1)C1CCc2ccc3[nH]ccc3c2C1 (configuration not stated)	Satisfied
CN(C)C1CCc2ccc3[nH]ccc3c2C1 (configuration not stated)	Not satisfied
c1ccc(CCCNCC2CCc3ccc4[nH]ccc4c3C2)cc1 (configuration not stated)	Not satisfied
CCCN(CCCc1ccccc1)[C@@H]1CCc2ccc3[nH]cc(C=O)c3c2C1	Satisfied

Exercise: Threshold query (pKi >= 7) on CCCN(Cc1ccccc1)C1CCc2ccc3[nH]ccc3c2C1 (configuration not stated)
Solution: Satisfied

Exercise: Threshold query (pKi >= 7) on CCCN(CC(C)C)[C@@H]1CCc2ccc3[nH]ccc3c2C1
Solution: Satisfied

----------
target: D(2) dopamine receptor (Rattus norvegicus, UniProt P61169); experiment: Binding affinity rat Dopamine receptor D2 expressed in CHO-K1 cells by [3H]U-86170 displacement.; assay type: cell-based
Sequence (P61169 whole entry): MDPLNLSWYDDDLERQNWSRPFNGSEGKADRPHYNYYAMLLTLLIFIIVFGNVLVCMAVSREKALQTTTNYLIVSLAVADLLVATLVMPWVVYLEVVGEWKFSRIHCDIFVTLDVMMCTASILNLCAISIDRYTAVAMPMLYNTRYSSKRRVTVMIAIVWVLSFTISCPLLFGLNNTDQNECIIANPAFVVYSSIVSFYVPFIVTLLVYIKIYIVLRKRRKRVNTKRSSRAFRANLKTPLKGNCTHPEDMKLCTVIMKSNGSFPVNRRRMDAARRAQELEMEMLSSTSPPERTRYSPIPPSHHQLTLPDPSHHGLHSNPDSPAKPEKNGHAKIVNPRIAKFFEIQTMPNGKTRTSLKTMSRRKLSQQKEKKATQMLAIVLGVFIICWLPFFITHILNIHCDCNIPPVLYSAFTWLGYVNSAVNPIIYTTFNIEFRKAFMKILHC
# reported pKi; entries follow
Please treat pKi as minus the base-10 logarithm of the molar concentration.

CCCN(CCCOc1cccc(Cl)c1)C1CCc2ccc3[nH]ccc3c2C1 (centres undefined)	7.82
CCCN(C)C1CCc2ccc3[nH]ccc3c2C1 (centres undefined)	7.48
CCCN(CCCc1ccccc1OC)C1CCc2ccc3[nH]ccc3c2C1 (centres undefined)	8.32

In the following, a different compound is considered.
Exercise: Read the entry c1ccc(CCCNCC2CCc3ccc4[nH]ccc4c3C2)cc1 (centres undefined) and write its reported pKi.
Solution: 7.49

----------
biological target: D(2) dopamine receptor (Rattus norvegicus); assay: In vitro binding affinity against cloned mammalian Dopamine receptor D2 expressed in CHO cells using [3H]U-86170 as radioligand; format: cell-based; details: read-out: Ki
# reported Ki; entries follow
// units = nM; emit number, no label

CCCN(CCCCN1C(=O)CC(C)(C)CC1=O)[C@H]1CCc2ccc3[nH]cc(C=O)c3c2C1	859
CCCN(CCCCN1C(=O)CC(C)(C)CC1=O)C1CCc2ccc3[nH]cc(C=O)c3c2C1 (centres undefined)	136
CCCN(CCCc1ccccc1)[C@@H]1CCc2ccc3[nH]cc(C=O)c3c2C1	5.8
CCCNC1CCc2ccc3[nH]cc(C=O)c3c2C1 (centres undefined)	60
CCCN(CCCCN1C(=O)CC(C)(C)CC1=O)[C@@H]1CCc2ccc3[nH]cc(C=O)c3c2C1	62

Exercise: Read the entry CCCN(CCc1ccccc1)C1CCc2ccc3[nH]ccc3c2C1 (centres undefined) and write its reported Ki.
Solution: 5.5

Exercise: Read the entry CCCN(Cc1ccccc1)C1CCc2ccc3[nH]cc(C=O)c3c2C1 (centres undefined) and write its reported Ki.
Solution: 90

Exercise: Read the entry CCCN(CCc1ccccc1)C1CCc2ccc3[nH]cc(C=O)c3c2C1 (centres undefined) and write its reported Ki.
Solution: 62

Exercise: Read the entry CN(C)[C@H]1CCc2ccc3[nH]cc(C=O)c3c2C1 and write its reported Ki.
Solution: 250

Exercise: Read the entry CCCN(CCc1cccs1)C1CCc2ccc3[nH]cc(C=O)c3c2C1 (centres undefined) and write its reported Ki.
Solution: 25

Exercise: Read the entry CCCN(CC(C)C)[C@@H]1CCc2ccc3[nH]cc(C=O)c3c2C1 and write its reported Ki.
Solution: 28

Exercise: Read the entry C=CCN(CCC)C1CCc2ccc3[nH]cc(C=O)c3c2C1 (centres undefined) and write its reported Ki.
Solution: 59

Hello, the source for this data is ChEMBL document CHEMBL1128739, in case you need it.
